targetOfAssay: His-tagged KRAS G12D protein (Homo sapiens (Human), UniProt P01116, G12D)
Sequence (P01116 other isoform, or with tags, fused parts or gaps G12D): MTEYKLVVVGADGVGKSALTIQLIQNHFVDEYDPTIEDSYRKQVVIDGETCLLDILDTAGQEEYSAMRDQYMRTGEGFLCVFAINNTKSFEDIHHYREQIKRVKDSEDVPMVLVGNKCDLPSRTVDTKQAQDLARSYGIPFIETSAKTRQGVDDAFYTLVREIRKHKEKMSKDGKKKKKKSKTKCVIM
testSummary: KRAS G12D TR-FRET Assay
Format: binding
conditionContext: TR-FRET; read-out: KRAS G12D Binding
Lab note - cut at 5 nM for IC50: Satisfied if strictly below, Not satisfied if not.

[[record]]
molecule = "O[C@H]1C[C@H]2COCCCCc3c(Cl)cc4[nH]ncc4c3-c3ncc4c(nc(OC[C@@]56CCCN5C[C@H](F)C6)nc4c3F)N(C1)C2"
targetofassay = "His-tagged KRAS G12D protein (Homo sapiens (Human), UniProt P01116, G12D)"
assignedcategory = "Not satisfied"

[[record]]
molecule = "Fc1c2ncc3c(nc(OC[C@@]45CCCN4C[C@H](F)C5)nc13)N1CCOC[C@@H](Cc3ncc(o3)CCc3c(Cl)cc4[nH]ncc4c3-2)C1 (single isomer, unassigned)"
targetofassay = "His-tagged KRAS G12D protein (Homo sapiens (Human), UniProt P01116, G12D)"
assignedcategory = "Not satisfied"

[[record]]
molecule = "Fc1c2ncc3c(nc(OC[C@@]45CCCN4C[C@H](F)C5)nc13)N1CCCC[C@@](F)(COCCCCc3c(Cl)cc4[nH]ncc4c3-2)C1"
targetofassay = "His-tagged KRAS G12D protein (Homo sapiens (Human), UniProt P01116, G12D)"
assignedcategory = "Satisfied"

[[record]]
molecule = "Fc1c2ncc3c(nc(OC[C@@]45CCCN4C[C@H](F)C5)nc13)N1CCO[C@@H](COCC[C@H]3C[C@H]3c3c(Cl)cc4[nH]ncc4c3-2)C1"
targetofassay = "His-tagged KRAS G12D protein (Homo sapiens (Human), UniProt P01116, G12D)"
assignedcategory = "Not satisfied"

[[record]]
molecule = "O[C@]12CCOCCc3c(Cl)cc4[nH]ncc4c3-c3ncc4c(nc(OC[C@@]56CCCN5C[C@H](F)C6)nc4c3F)N3CCC[C@@](C3)(C1)C2"
targetofassay = "His-tagged KRAS G12D protein (Homo sapiens (Human), UniProt P01116, G12D)"
assignedcategory = "Satisfied"

[[record]]
molecule = "O=C1CCCCc2c(Cl)cc3[nH]ncc3c2-c2ncc3c(nc(OC[C@@]45CCCN4C[C@H](F)C5)nc3c2F)N2CCOCC(C2)C1O (mixture of isomers)"
targetofassay = "His-tagged KRAS G12D protein (Homo sapiens (Human), UniProt P01116, G12D)"
assignedcategory = "Not satisfied"


* * *

targetOfAssay: His-tagged KRAS G12D protein (Homo sapiens (Human), UniProt P01116, G12D)
testSummary: KRAS G12D TR-FRET Assay
Assay type: binding
conditionContext: read-out: KRAS G12D Binding IC50
Counter-ions that a name gives are not always drawn.
Lab note - cut at 20 nM for IC50: satisfied if strictly below, not satisfied if not.

[[record]]
compound = "O=C1CC2CCCN(C2)c2nc(OC[C@@]34CCCN3C[C@H](F)C4)nc3c(F)c(ncc23)-c2cccc3cccc(c23)CCO1 (stereo partly drawn)"
assignedcategory = "satisfied"

[[record]]
compound = "C[C@@]12CCN(C1)c1nc(OC[C@@]34CCCN3C[C@H](F)C4)nc3c(F)c(ncc13)-c1cc(O)cc3ccc(F)c(c13)CCCC(=O)N2 [Example 10, 2,2,2-trifluoroacetate salt]"
assignedcategory = "satisfied"

[[record]]
compound = "C[C@@H]1CCOC[C@H]2CN(CCO2)c2nc(OC[C@@]34CCCN3C[C@H](F)C4)nc3c(F)c(ncc23)-c2c(c(Cl)cc3[nH]ncc23)C1"
assignedcategory = "satisfied"

[[record]]
compound = "CN1C(=O)COCC[C@H]2CCc3cc4[nH]ncc4c(c32)-c2ncc3c(nc(OC[C@@]45CCCN4C[C@H](F)C5)nc3c2F)N2CCC[C@@H]1C2"
assignedcategory = "not satisfied"

[[record]]
compound = "O=C1N[C@H]2C[C@@]3(CCCN(C3)c3nc(OC[C@@]45CCCN4C[C@H](F)C5)nc4c(F)c(ncc34)-c3c(c(Cl)cc4[nH]ncc34)CCO1)C2"
assignedcategory = "satisfied"

[[record]]
compound = "Cc1cc2[nH]ncc2c2c1CCCOC(=O)O[C@@H]1CCCCN(C1)c1nc(OC[C@@H]3CCCN3C)nc3c(F)c-2ncc13"
assignedcategory = "satisfied"

